Protocol: recombinant barcode read abundance after kanamycin selection (control-corrected) (log10(CPM+1)); higher = more efficient recombination; sequences stand for … in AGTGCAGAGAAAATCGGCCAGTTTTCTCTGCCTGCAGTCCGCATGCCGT…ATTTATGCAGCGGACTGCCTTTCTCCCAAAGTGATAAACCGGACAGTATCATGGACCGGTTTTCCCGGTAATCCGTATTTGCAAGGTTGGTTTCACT; site = the 11-nt target
Label satisfied for high-side recombinant barcode read abundance (log10) (at or above 0.04) and not satisfied for low-side recombinant barcode read abundance (log10) (below it).

> print(dat)
                                  seq.string    label.value
 1  CATATTATTTGGGTTCTAACCTGTTGCCTAG [CATATTACTAG_LTGcore_TT_RTGcore_CT] (site CATATTACTAG) (LTG core: TT, RTG core: CT)  not satisfied
 2  GAGGCCTCTTGGGTTCTAACCTGTTGCCAAC [GAGGCCTCTTG_LTGcore_CT_RTGcore_GT] (site GAGGCCTCTTG) (LTG core: CT, RTG core: GT)      satisfied
 3  GCGGGACCGTGGGTTCTAACCTGTTGCCTAG [GCGGGACCTAG_LTGcore_CG_RTGcore_CT] (site GCGGGACCTAG) (LTG core: CG, RTG core: CT)      satisfied
 4  GGTGCCCGCTGGGTTCTAACCTGTTGCCGGC [GGTGCCCCTCG_LTGcore_GC_RTGcore_GC] (site GGTGCCCCTCG) (LTG core: GC, RTG core: GC)      satisfied
 5  AAACATGCTTGGGTTCTAACCTGTTGCCTGT [AAACATGCTAG_LTGcore_CT_RTGcore_AC] (site AAACATGCTAG) (LTG core: CT, RTG core: AC)      satisfied
 6  AGGCGGTCTTGGGTTCTAACCTGTTGCTTAA [AGGCGGTCTAA_LTGcore_CT_RTGcore_TT] (site AGGCGGTCTAA) (LTG core: CT, RTG core: TT)      satisfied
 7  GGCTCCCCTTGGGTTCTAACCTGTTGCGGAT [GGCTCCCCTCC_LTGcore_CT_RTGcore_AT] (site GGCTCCCCTCC) (LTG core: CT, RTG core: AT)      satisfied
 8  TTATAAAAATGGGTTCTAACCTGTTGCCTTT [TTATAAACTAG_LTGcore_AA_RTGcore_AA] (site TTATAAACTAG) (LTG core: AA, RTG core: AA)  not satisfied
 9  AGTCTTAGTTGGGTTCTAACCTGTTGCCAAC [AGTCTTACTTG_LTGcore_GT_RTGcore_GT] (site AGTCTTACTTG) (LTG core: GT, RTG core: GT)  not satisfied
10  TCGCGACCTTGGGTTCTAACCTGTTGCCGTT [TCGCGACCTCG_LTGcore_CT_RTGcore_AA] (site TCGCGACCTCG) (LTG core: CT, RTG core: AA)  not satisfied
11  GGCTCCCCTTGGGTTCTAACCTGTTGCGGTC [GGCTCCCCTCC_LTGcore_CT_RTGcore_GA] (site GGCTCCCCTCC) (LTG core: CT, RTG core: GA)  not satisfied
12  GGACACCCTTGGGTTCTAACCTGTTGCCTTT [GGACACCCTAG_LTGcore_CT_RTGcore_AA] (site GGACACCCTAG) (LTG core: CT, RTG core: AA)      satisfied
13  GGGCGTGTTTGGGTTCTAACCTGTTGCCTAA [GGGCGTGCTAG_LTGcore_TT_RTGcore_TT] (site GGGCGTGCTAG) (LTG core: TT, RTG core: TT)      satisfied
14  TAGAGGGTATGGGTTCTAACCTGTTGCGGAG [TAGAGGGCTCC_LTGcore_TA_RTGcore_CT] (site TAGAGGGCTCC) (LTG core: TA, RTG core: CT)      satisfied
